assay: maximum solubility of Resiniferatoxin by the equilibrium method (HPLC); format: physicochemical; details: buffer medium with TPGS, 25 °C, pH 8, aqueous with cosolvent or surfactant or cyclodextrin, thermodynamic from solid, Ex. 5-3: ethanol 39.44 mg/ml, mannitol 14.9 mg/ml, TPGS 3.5 mg/ml, salts as Ex. 5-2, pH 8.0, mean ± SD, n ≥ 3, read-out: RTX solubility
measuredParameter: solubility at 72 h (µg/mL)
Answers are plain numbers, in µg/mL.

QUERY: Can you look up the measured solubility at 72 h of C=C(C)[C@]12C[C@@H](C)[C@@]34O[C@](Cc5ccccc5)(O[C@@H]1[C@@H]3C=C(COC(=O)Cc1ccc(O)c(OC)c1)C[C@]1(O)C(=O)C(C)=C[C@@H]41)O2 [RTX] for me?
RESULT: 336

----------
experiment: maximum solubility of Resiniferatoxin by the equilibrium method (HPLC); format: physicochemical; conditions: buffer medium with TPGS, 25 °C, pH 8, aqueous with cosolvent or surfactant or cyclodextrin, thermodynamic from solid, Ex. 5-1: no ethanol, TPGS 3.5 mg/ml, NaCl 8.58, CaCl2 0.2, KCl 0.1, trometamol 0.4 mg/ml, pH 8.0, mean ± SD, n ≥ 3, read-out: RTX solubility
measuredParameter: solubility at 72 h

QUERY: Item C=C(C)[C@]12C[C@@H](C)[C@@]34O[C@](Cc5ccccc5)(O[C@@H]1[C@@H]3C=C(COC(=O)Cc1ccc(O)c(OC)c1)C[C@]1(O)C(=O)C(C)=C[C@@H]41)O2 has what recorded solubility at 72 h?
RESULT: 333 µg/mL

----------
assay: maximum solubility of Resiniferatoxin by the equilibrium method (HPLC); type: physicochemical; settings: buffer medium with TPGS, 25 °C, pH 8, aqueous with cosolvent or surfactant or cyclodextrin, thermodynamic from solid, Ex. 5-4: no ethanol, TPGS 3.5 mg/ml, NaCl 8.58, CaCl2 0.58, KCl 0.3, trometamol 1.22 mg/ml, pH 8.0, mean ± SD, n ≥ 3, read-out: RTX solubility
measuredParameter: solubility at 72 h (µg/mL)
One number for each entry, in µg/mL.

QUERY: Returns the measured solubility at 72 h for the input compound. Input: C=C(C)[C@]12C[C@@H](C)[C@@]34O[C@](Cc5ccccc5)(O[C@@H]1[C@@H]3C=C(COC(=O)Cc1ccc(O)c(OC)c1)C[C@]1(O)C(=O)C(C)=C[C@@H]41)O2
RESULT: 317
